Assay: Bioavailability of levosimendan following buccal and intravenous administration in dogs (plasma concentration)
Format: in vivo, beagle dogs
Conditions: beagle, dog, plasma, iv, 0.02 mg/kg, dog plasma, iv 0.02 mg/kg, 40 min, Dog 2
observationType: concentration at 40 min (ng/mL)
Return type: number; implicit unit ng/mL.

# concentration at 40 min lookup, item CC1CC(=O)NN=C1c1ccc(NN=C(C#N)C#N)cc1 (single isomer, unassigned; (-))
46

###

Test: Bioavailability of levosimendan following buccal and intravenous administration in dogs (plasma concentration)
Format: in vivo, beagle dogs
Conditions: beagle, dog, plasma, iv, 0.02 mg/kg, dog plasma, iv 0.02 mg/kg, 90 min, Dog 3
observationType: concentration at 90 min (ng/mL)
I only need the number, in ng/mL, no unit after it.

Report concentration at 90 min for CC1CC(=O)NN=C1c1ccc(NN=C(C#N)C#N)cc1 (single isomer, unassigned; (-)) please.
33
